Here, each record is paired with measured furin cleavage Z-score data.
Target: furin, P09958;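 note: purified furin at 1:10 enzyme:substrate in 50 mM HEPES pH 7.5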
Sequence (P09958 whole entry): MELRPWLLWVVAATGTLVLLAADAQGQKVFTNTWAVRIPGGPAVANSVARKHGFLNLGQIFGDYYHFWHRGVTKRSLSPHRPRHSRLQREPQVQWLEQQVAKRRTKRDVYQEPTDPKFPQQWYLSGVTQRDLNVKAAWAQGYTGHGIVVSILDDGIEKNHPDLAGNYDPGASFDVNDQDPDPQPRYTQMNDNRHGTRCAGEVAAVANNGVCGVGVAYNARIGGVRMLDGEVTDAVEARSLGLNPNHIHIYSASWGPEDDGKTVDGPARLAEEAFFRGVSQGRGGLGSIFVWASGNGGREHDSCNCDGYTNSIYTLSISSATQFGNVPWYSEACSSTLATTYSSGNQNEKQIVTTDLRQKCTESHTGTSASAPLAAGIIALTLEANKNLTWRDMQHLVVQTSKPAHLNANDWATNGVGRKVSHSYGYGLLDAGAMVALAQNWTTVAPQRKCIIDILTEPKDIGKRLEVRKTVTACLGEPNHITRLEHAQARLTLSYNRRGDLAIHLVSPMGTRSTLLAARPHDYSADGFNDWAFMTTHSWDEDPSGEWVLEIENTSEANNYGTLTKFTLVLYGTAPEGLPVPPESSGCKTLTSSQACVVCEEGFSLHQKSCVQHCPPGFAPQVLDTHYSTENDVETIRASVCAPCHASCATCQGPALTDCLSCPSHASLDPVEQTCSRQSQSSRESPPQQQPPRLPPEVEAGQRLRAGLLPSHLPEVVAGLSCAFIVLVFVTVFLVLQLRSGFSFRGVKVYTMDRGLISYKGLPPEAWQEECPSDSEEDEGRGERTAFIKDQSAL
Assay: furin cleavage Z-score vs untreated control; higher = more cleavage, active = 3.5 or more, inactive = 1 or less, 8 variable residues between constant flanks
Conditions: 15 min
Some of the results follow. The true hit rate is not given.
Keep the answer to the number alone.

In the examples that follow, each entry is paired with its recorded furin cleavage Z-score.
| seq.string | reported.measurement |
| --- | --- |
| CAADPRVRRAAGNASASA [FS-1298] | 8.47 |
| CALLQRKKKLAGNASASA [FS-823] | 0.355 |

// recorded furin cleavage Z-score for CAYDCRCKRGAGNASASA [FS-899] : 0.0271

// recorded furin cleavage Z-score for CAADPRTWRSAGNASASA [FS-741] : 1.45

Hey, just so you know, these numbers are from the supplement of paper PMC3545927.
